# Tested on: PC-3 prostate
# method-description: NCI tumour cell line growth inhibition, 48 h
Hi there, I'd appreciate the recorded TGI for every entry that follows.

Report TGI for O=C1/C(=C\c2ccc(Br)cc2)CN(C(=O)c2ccccc2F)C/C1=C\c1ccc(Br)cc1 please.
4.21 µM

Could you share which TGI value was measured for COC(O)C12OC3CO[Si](C(C)C)(C(C)C)O[Si](C(C)C)(C(C)C)OC3C1Oc1nc(=O)ccn12 (stereo not drawn) ?
17 µM

Name the recorded TGI for CC(=O)OCC1OC(OC2=C(CC=C(C)C)C(=O)c3ccccc3C2=O)C(OC(C)=O)C(OC(C)=O)C1OC(C)=O (stereo not drawn) .
6.08 µM

Request the reported TGI associated with N#CC(C#N)=C/C=C(\Sc1ccc(F)c(Cl)c1)c1ccc(Cl)cc1
7.1 µM

Requested read-out: TGI. Entry: Cc1c(NC(=O)c2cc(C(N)=O)nc3cc(F)ccc23)c(C(F)(F)F)nn1Cc1ccc(C#N)cc1
24.4 µM

Which TGI is reported for this compound? Cc1ccc(O)c(N=Nc2c(O)cc(S(=O)(=O)O)c3ccccc23)c1
> 100 µM

Name the reported TGI value associated with the compound CC12CCC(C(=O)n3c1nc1ccccc13)C(C)(C)O2 (stereo not drawn)
> 100 µM

Give the measured TGI of OCCNc1ncnc2nc[nH]c12 .
> 100 µM

TGI for CCOC(=O)c1cc(NC(=O)c2cc(NC(=O)c3cc(NC(=O)c4c(-c5ccccc5)noc4C)cn3C)cn2C)cn1C ?
> 100 µM

Look up TGI for this compound: O=C(OC(CNc1c(C(=O)c2ccccc2)c(=O)n(Cc2ccccc2)c(=O)n1Cc1ccccc1)CN1CCOCC1)c1ccccc1 (stereo not drawn)
> 100 µM

Give the measured TGI of O=C1/C(=C/c2ccc3c(c2)CCC3)Cc2cc3c(cc21)CCC3 .
> 100 µM

Using the record for CC(NC(=O)C(CC(=O)OCc1ccccc1)NC(=O)OCc1ccccc1)c1ccccc1 (stereo not drawn) , report its TGI.
> 100 µM

Consider the compound shown here: C[C@]12CCC3c4ccc(O)cc4CC[C@H]3C1CC(=O)N(CCN1CCCC1)C2=O (stereo partly drawn) What is its recorded TGI?
> 10 µM

# input compound: COc1nc(-c2cn(S(=O)(=O)c3ccc(C)cc3)c3ccc(Br)cc23)cc(C(F)(F)F)c1C#N ; wanted: its TGI
> 100 µM

Look at this compound and give its reported TGI. Cc1cccc(NC(=O)c2sc3nc4c(cc3c2N)CCCC4)c1
> 100 µM

Find the recorded TGI belonging to COC1C(CO)OC(n2c3ccccc3c3c4c(c5c6ccccc6[nH]c5c32)C(=O)NC4=O)C(OC(=O)C(N)CCCCN)C1O (stereo not drawn) and report it.
2.58 µM

Using the record for O=P(O)(OP(=O)(O)c1ccccc1)c1ccccc1 (tested in a mixture with another compound) , report its TGI.
> 100 µM

Requested read-out: TGI. Entry: CN(C)c1ccc2nc3ccc(=N)cc-3sc2c1
14.2 µM

Item CC(C(N)=O)N(C)C(=O)c1cc2ccccc2[n+](Cc2ccccc2)c1 (stereo not drawn) has what recorded TGI?
> 100 µM

I would be grateful if you could share the reported TGI for CC(C)(O)c1coc(S(=O)(=O)/N=C(\O)Nc2c3c(cc4c2CCC4)CCC3)c1 .
> 100 µM

Reported TGI for COc1ccc(C2=C(c3cn(C)c4ccccc34)C(=O)NC2=O)cc1 : what is it?
> 25 µM

Entry Cn1cc(NC(=O)c2cc(NC(=O)c3cc(NC=O)cn3C)cn2C)cc1C(=O)NCCC(=N)N : reported TGI = ?
> 100 µM

Which TGI reading was recorded for the compound CC12OC(=O)[C@@]3(O)CCC4C(C[C@H]5O[C@]56CC=CC(=O)[C@]46C)C45OC[C@H]6C(=O)O[C@@H]1C[C@@]6(C)[C@H](C4=O)C23O5 (stereo partly drawn) ?
12.9 µM

# query: TGI of entry COC(=O)/C=C\n1ncc(=O)[nH]c1=O
> 100 µM

For O=c1[nH]c2cc(C(F)(F)F)ccc2nc1CBr , what is its reported TGI?
26.3 µM

Value lookup for TGI; key = COC(=O)[C@@H](Nc1ccccc1)[C@@]1(C(=O)OC)SC12c1ccccc1-c1ccccc12
> 100 µM

Fill in: TGI of CC1=C(SCCC(=O)OCC(=O)NCCC[Te]c2ccccc2)C(=O)c2ccccc2C1=O is ___
9.76 µM

So what's the measured TGI for this one? CNC(=O)CCC(NC(=O)OC(C)(C)C)C(=O)NC(Cc1ccc(NC(=O)CCCCC(C)=O)cc1)C(=O)NCC(=O)NC (stereo not drawn)
> 100 µM

Entry COc1cc(C(=O)/C=C/c2c(-c3cccs3)nc3sc(C)cn23)cc(OC)c1OC : reported TGI = ?
> 100 µM

What value of measured TGI is listed for COc1cc(CC(C)C(C)Cc2ccc(O)c(OC)c2)ccc1O (stereo not drawn) ?
27.7 µM

// TGI lookup, key: N#CCCC1(CCC#N)CCc2ccccc2C1=O
> 100 µM

Requested read-out: TGI. Entry: CC(=O)OC1C[C@@H](C)C2(C[C@H](O)c3ccoc3)C(=O)OC[C@]13C2CCC(O)C31CO1 (stereo partly drawn)
> 100 µM

Given the entry CC1(C)OCC(C2CCC3(C)C4=CCC5C(C)(C)C(O)CCC5(C)C4CCC23C)CC(O)C1O (stereo not drawn) , report its measured TGI.
26.6 µM

Recorded TGI of COc1cc2c(cc1O)N=C[C@@H]1C[C@@H](F)CN1C2=O , please.
9.18 µM

Quick one: TGI of COC1(OC)C[C@H](C)[C@@]23O[C@]24C2=CC(=O)C=CC2=N[C@H]3C#C/C=C\C#C[C@]14O ?
2.09 µM

Any idea what TGI was measured for C/C(=N\NC(=S)NCCNC(=S)N/N=C(\C)c1ccccn1)c1ccccn1 ?
> 100 µM

Give the measured TGI of CCOC(=O)[C@@H]1C2C(=C[C@H]3[C@H]1C(=O)N1CCCC[C@H]31)CCCN2C(=O)OCc1ccccc1 (stereo partly drawn) .
77.6 µM

I have this compound here, O=C1c2ccccc2-c2c1c1ccccc1c(=O)n2-c1cccnc1 , and I need its recorded TGI.
> 100 µM
